FYI, the data here is from patent US8080529B2.

# System: IL-8
# PROCEDURE_SUMMARY: Inhibition of IL-8 production by stimulated human peripheral blood leukocytes in vitro
# Type: cell-based
# CONDITION_LABEL: Homo sapiens, Leukocyte, 50 μM; PMA-stimulated PBL; read-out: Percentage of inhibition of IL-8 production
# cutoff 80% applies to inhibition at 50 µM; >= gives Condition met, < gives Condition not met

{"columns": ["COMPOUND", "ANSWER_LABEL"],
 "data": [
  ["CC[C@H]1OC(=O)[C@H](C)[C@@H](O[C@H]2C[C@@](C)(OC)[C@@H](OC(=O)CCN(CC)CC)[C@H](C)O2)[C@H](C)[C@@H](O[C@@H]2O[C@H](C)C[C@H](N(C)C)[C@H]2O)[C@](C)(O)C[C@@H](C)CN(C)[C@H](C)[C@@H](O)[C@]1(C)O", "Condition met"]
]}

IN: Please tell me: is the compound `CC[C@H]1OC(=O)[C@H](C)[C@@H](O[C@H]2C[C@@](C)(OC)[C@@H](OC(=O)CCN3CCN(CCN(C)C)CC3)[C@H](C)O2)[C@H](C)[C@@H](O[C@@H]2O[C@H](C)C[C@H](N(C)C)[C@H]2O)[C@](C)(OC)C[C@@H](C)C(=O)N[C@H](C)[C@@H](O)[C@]1(C)O` at or over 80% in terms of inhibition at 50 µM?
OUT: Condition not met

IN: Request: `CC[C@H]1OC(=O)[C@H](C)[C@@H](O[C@H]2C[C@@](C)(OC)[C@@H](OC(=O)CCN3CCCN(CCCN4CCCC4)CC3)[C@H](C)O2)[C@H](C)[C@@H](O[C@@H]2O[C@H](C)C[C@H](N(C)C)[C@H]2O)[C@](C)(OC)C[C@@H](C)C(=O)N[C@H](C)[C@@H](O)[C@]1(C)O`
OUT: Condition not met

IN: Request: `CC[C@H]1OC(=O)[C@H](C)[C@@H](O[C@H]2C[C@@](C)(OC)[C@@H](OC(=O)CCN(CC)CC)[C@H](C)O2)[C@H](C)[C@@H](O[C@@H]2O[C@H](C)C[C@H](N(C)C)[C@H]2O)[C@](C)(OC)C[C@@H](C)NC(=O)[C@H](C)[C@@H](O)[C@]1(C)O`
OUT: Condition not met

IN: Request: `CC[C@H]1OC(=O)[C@H](C)[C@@H](O[C@H]2C[C@@](C)(OC)[C@@H](OC(=O)CCN(CC)CC)[C@H](C)O2)[C@H](C)[C@@H](O[C@@H]2O[C@H](C)C[C@H](N(C)C)[C@H]2O)[C@](C)(OC)C[C@@H](C)C(=O)[C@H](C)[C@H]2NC(=O)O[C@@]21C`
OUT: Condition met

IN: Request: CC[C@H]1OC(=O)[C@H](C)[C@@H](O[C@H]2C[C@@](C)(OC)[C@@H](OC(=O)CCN3CCN(CC4CCCN(C)C4)CC3)[C@H](C)O2)[C@H](C)[C@@H](O[C@@H]2O[C@H](C)C[C@H](N(C)C)[C@H]2O)[C@](C)(OC)C[C@@H](C)C(=O)N[C@H](C)[C@@H](O)[C@]1(C)O (stereo partly shown)
OUT: Condition not met

IN: Request: `CC[C@H]1OC(=O)[C@H](C)[C@@H](O[C@H]2C[C@@](C)(OC)[C@@H](OC(=O)CCN(C)C)[C@H](C)O2)[C@H](C)[C@@H](O[C@@H]2O[C@H](C)C[C@H](N(C)C)[C@H]2O)[C@](C)(OC)C[C@@H](C)C(=O)N[C@H](C)[C@@H](O)[C@]1(C)O`
OUT: Condition not met

* * *

# inhibition at 50 µM per entry
# Test system: IL-6
# PROCEDURE_SUMMARY: Inhibition of IL-6 production by stimulated human peripheral blood leukocytes in vitro
# Format: cell-based
# CONDITION_LABEL: Homo sapiens, Leukocyte, 50 μM; PMA-stimulated PBL; read-out: Percentage of inhibition of IL-6 production
Please give a number only; it is taken to be in %.

{"columns": ["COMPOUND", "UNIT_TAG", "inhibition at 50 µM"],
 "data": [
  ["CC[C@H]1OC(=O)[C@H](C)[C@@H](O[C@H]2C[C@@](C)(OC)[C@@H](OC(=O)CCN(CC)CC)[C@H](C)O2)[C@H](C)[C@@H](O[C@@H]2O[C@H](C)C[C@H](NC)[C@H]2O)[C@](C)(OC)C[C@@H](C)C(=O)N[C@H](C)[C@@H](O)[C@]1(C)O", "%", 71],
  ["CC[C@H]1OC(=O)[C@H](C)[C@@H](O[C@H]2C[C@@](C)(OC)[C@@H](OC(=O)CCN(C)CCO)[C@H](C)O2)[C@H](C)[C@@H](O[C@@H]2O[C@H](C)C[C@H](N(C)C)[C@H]2O)[C@](C)(OC)C[C@@H](C)C(=O)N[C@H](C)[C@@H](O)[C@]1(C)O", "%", 95],
  ["CC[C@H]1OC(=O)[C@H](C)[C@@H](O[C@H]2C[C@@](C)(OC)[C@@H](OC(=O)CCN(CC)CC)[C@H](C)O2)[C@H](C)[C@@H](O[C@@H]2O[C@H](C)C[C@H](N(C)C)[C@H]2O)[C@](C)(OC)C[C@@H](C)NC(=O)[C@H](C)[C@@H](O)[C@]1(C)O", "%", 66],
  ["CC[C@H]1OC(=O)[C@H](C)[C@@H](O[C@H]2C[C@@](C)(OC)[C@@H](OC(=O)CCN(C)C3CCCCC3)[C@H](C)O2)[C@H](C)[C@@H](O[C@@H]2O[C@H](C)C[C@H](N(C)C)[C@H]2O)[C@](C)(OC)C[C@@H](C)C(=O)N[C@H](C)[C@@H](O)[C@]1(C)O", "%", 87]
]}

IN: Which inhibition at 50 µM is reported for this compound? CC[C@H]1OC(=O)[C@H](C)C(O[C@H]2C[C@@](C)(OC)[C@@H](OC(=O)CCN(CC)CC)[C@H](C)O2)[C@H](C)[C@@H](O[C@@H]2O[C@H](C)C[C@H](N(C)C)[C@H]2O)[C@](C)(OC)C[C@@H](C)C(=O)[C@H](C)[C@H](O)[C@]1(C)O (stereo partly drawn)
OUT: 86

IN: Request: CC[C@H]1OC(=O)[C@H](C)[C@@H](O[C@H]2C[C@@](C)(OC)C(OC(=O)CCN(CC)CC)[C@H](C)O2)[C@H](C)[C@@H](O[C@@H]2O[C@H](C)C[C@H](NC)[C@H]2O)[C@](C)(O)C[C@@H](C)CN(C)[C@H](C)[C@@H](O)[C@]1(C)O (stereo partly drawn)
OUT: 90

IN: Request: `CC[C@H]1OC(=O)[C@H](C)[C@@H](O[C@H]2C[C@@](C)(OC)[C@@H](OC(=O)CCN3CCN(CCOCCO)CC3)[C@H](C)O2)[C@H](C)[C@@H](O[C@@H]2O[C@H](C)C[C@H](N(C)C)[C@H]2O)[C@](C)(OC)C[C@@H](C)C(=O)N[C@H](C)[C@@H](O)[C@]1(C)O`
OUT: 61

IN: Request: CC[C@H]1OC(=O)[C@H](C)[C@@H](OC2C[C@@](C)(OC)[C@@H](OC(=O)CCN3CCNCC3)[C@H](C)O2)[C@H](C)[C@@H](OC2O[C@H](C)C[C@H](N(C)C)[C@H]2O)[C@](C)(OC)C[C@@H](C)C(=O)[C@H](C)[C@@H](O)[C@]1(C)O (stereo partly drawn)
OUT: 23

IN: Request: `CC[C@H]1OC(=O)[C@H](C)[C@@H](O[C@H]2C[C@@](C)(OC)[C@@H](OC(=O)CCN3CCN(CCCN4CCCCC4)CC3)[C@H](C)O2)[C@H](C)[C@@H](O[C@@H]2O[C@H](C)C[C@H](N(C)C)[C@H]2O)[C@](C)(OC)C[C@@H](C)C(=O)N[C@H](C)[C@@H](O)[C@]1(C)O`
OUT: 60

* * *

# Percentage of inhibition of IL-1α production per entry
# System: IL-1α
# PROCEDURE_SUMMARY: Inhibition of IL-1 production by stimulated human peripheral blood leukocytes in vitro
# Type: cell-based
# CONDITION_LABEL: 10 μM; zymosan-stimulated PBL
Please give a number only; it is taken to be in %.

{"columns": ["MOLECULE", "UNIT_TAG", "ASSAY_RESULT"],
 "data": [
  ["CCC1OC(=O)C(C)C(OC2CC(C)(OC)C(OCCCN3CCN(CCN(CC)CC)CC3)C(C)O2)C(C)C(OC2OC(C)CC(N(C)C)C2O)C(C)(O)CC(C)CN(C)C(C)C2OC(=O)OC12C (stereo not shown)", "%", 49]
]}

IN: Which Percentage of inhibition of IL-1α production is reported for this molecule? `CC[C@H]1OC(=O)[C@H](C)[C@@H](O[C@H]2C[C@@](C)(OC)[C@@H](OCCCN(CC)CC)[C@H](C)O2)[C@H](C)[C@@H](O[C@@H]2O[C@H](C)C[C@H](N(C)C)[C@H]2O)[C@](C)(O)C[C@@H](C)CN(C)[C@H](C)[C@H]2OC(=O)O[C@@]21C`
OUT: 38

IN: Request: `CCC(=O)N(C)[C@H]1C[C@@H](C)O[C@@H](O[C@@H]2[C@@H](C)[C@H](O[C@H]3C[C@@](C)(OC)[C@@H](OC(=O)CCN(CC)CC)[C@H](C)O3)[C@@H](C)C(=O)O[C@H](CC)[C@@](C)(O)[C@H](O)[C@@H](C)NC(=O)[C@H](C)C[C@@]2(C)OC)[C@@H]1O`
OUT: 45

IN: Request: CCC1OC(=O)C(C)C(OC2CC(C)(OC)C(OC(=O)CCN(CC)CC)C(C)O2)C(C)C(OC2OC(C)CC(N(C)C)C2O)C(C)(OC)CC(C)C(=O)NC(C)C(O)C1(C)O (stereo not shown)
OUT: 86
